Data origin: the supplement of paper PMC12632987

Molecular target: T1, USP38, Q8NB14
T1 chain: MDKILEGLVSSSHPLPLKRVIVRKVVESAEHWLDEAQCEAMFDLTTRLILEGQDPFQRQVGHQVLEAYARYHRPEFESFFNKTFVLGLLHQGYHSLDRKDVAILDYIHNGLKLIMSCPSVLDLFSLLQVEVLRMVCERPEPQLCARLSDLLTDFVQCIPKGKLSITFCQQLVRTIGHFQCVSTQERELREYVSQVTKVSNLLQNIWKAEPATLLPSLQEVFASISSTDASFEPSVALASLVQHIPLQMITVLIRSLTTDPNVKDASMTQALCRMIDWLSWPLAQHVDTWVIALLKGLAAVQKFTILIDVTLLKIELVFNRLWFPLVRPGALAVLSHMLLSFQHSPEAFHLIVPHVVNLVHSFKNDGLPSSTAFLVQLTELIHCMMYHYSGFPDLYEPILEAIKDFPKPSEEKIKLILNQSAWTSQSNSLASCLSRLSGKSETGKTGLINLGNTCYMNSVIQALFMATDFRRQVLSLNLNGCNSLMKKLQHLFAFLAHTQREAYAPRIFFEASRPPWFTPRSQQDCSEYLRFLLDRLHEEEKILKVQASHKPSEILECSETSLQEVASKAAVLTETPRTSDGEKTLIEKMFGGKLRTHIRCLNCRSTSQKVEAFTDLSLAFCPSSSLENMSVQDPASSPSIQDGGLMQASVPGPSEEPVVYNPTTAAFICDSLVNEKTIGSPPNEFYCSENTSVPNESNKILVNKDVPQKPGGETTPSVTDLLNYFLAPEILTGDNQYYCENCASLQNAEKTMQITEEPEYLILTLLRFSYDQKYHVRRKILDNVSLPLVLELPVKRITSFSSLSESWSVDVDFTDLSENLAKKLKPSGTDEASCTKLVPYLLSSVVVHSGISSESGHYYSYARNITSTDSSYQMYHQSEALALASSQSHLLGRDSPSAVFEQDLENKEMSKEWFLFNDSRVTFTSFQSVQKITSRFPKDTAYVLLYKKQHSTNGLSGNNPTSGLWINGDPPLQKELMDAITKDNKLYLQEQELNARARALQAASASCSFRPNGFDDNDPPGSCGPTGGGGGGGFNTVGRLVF
Test: median log2 fold change of GCK-ALFA target abundance (FLAG IP / Myc IP barcode read proportion) (log2 ratio); each designed protein is fused to an ALFA-tag nanobody in HEK293 cells to bring the named protein to FLAG-tagged glucokinase (GCK); Myc marks an untargeted standard; higher = target protein stabilised (more abundant)
Details: target protein: 3xFLAG-MCP-GCK-ALFA reporter; HEK293 landing pad (RPLP)
# thresholds on median log2 fold change define classes: group A (below -0.09), group B (-0.09 to below 0.1), group C (0.1 or more)

Please review the following examples before continuing.
- binder: "usp_38_diff_out_16_109_173 (protein) SQQAEGDRLFAEAAAANFRSLAEDAEAALARAKERGASPEVLAALQDLADTAKAAADTIEKTIADGGDLRATTDAQWDAVGAAAARADAIRRAEARARSD"
  assigned.category: "group A"
- binder: "usp_38_diff_out_20_123_455 (protein) SEELRERAERLLKRSKQLVENAKQILKFVKAGVLSEETVEEHIKFLEDLIKYFEEELERLKKEDPSLKELLEEVEAAIKEAKEVLKEIKEAAEKRKKEEE"
  assigned.category: "group C"
- binder: "usp_38_diff_out_18_14_269 (protein) SAELAAAKVSNLKTLKEDVERDTERVIRLLEANRDDPERVRRIHERALRNLEGVRKYAEEVKEEAEKEGDKETVKAAEELLKKIEEARRRIDARYAEVMA"
  assigned.category: "group C"

Exercise: Which band does usp_38_diff_out_13_93_77 (protein) SLEEKAKALLAEIEARAKALLEELEELAERGEITIEEVLERSSALFDEIAAETRAMVAELEAAGKKALAEELKKKVNEIILDATEGIGKILERLAEREAA fall in?
Key: group B

Exercise: # bin label for usp_38_diff_out_5_80_613 (protein) SLLEEARRLAEEALKAEDLETFEELLKQLVETVRRAAEEALERGTLDETVRELSGILLELDKEVRKSSNKEKKKLAKEYLNQAVDVLAAAELRALEREAA
Key: group A

Exercise: Hi, small favor: classify usp_38_diff_out_14_2_102 (protein) AEAEIEKATEETLAVLEEAIKKFEELEKEVEEDPSKAEEAFERILEEWDRAADAVGALARLLEAHPEVRETRKKAVAEVNEALTRLTEKATRALEKAAEA by its median log2 fold change when you get a moment.
Key: group B
